Test: qHTS assay to identify small molecule agonists of the RXR signaling pathway - cell viability counter screen (AID 1159529);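 further: HEK 293T cells carrying an RXR-alpha UAS beta-lactamase reporter; nearly all actives have a fitted effect of over 50% in size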
Settings: RXR-alpha-bla HEK293T viability, CellTiter-Glo, 16 h; series mostly up to 76.8 µM
Source text: National Center for Advancing Translational Sciences [NCATS] NIH Chemical Genomics Center [NCGC] U.S. Environmental Protection Agency [EPA] National Institutes of Environmental Health Sciences [NIEHS] National Toxicology Program [NTP] U.S. Food and Drug Administration [FDA] The Retinoid X receptor (RXR), a nuclear hormone receptor expressed in liver, spleen, placenta, epidermis, central nervous system. […]
Inconclusive results are not listed. Active and inactive are the calls of the source. The call rests on the fitted dose curve; in most records, active means well fitted cell-killing curve with a large enough effect in the repeat runs; inconclusive means weak or mixed curves, or effect the other way; inactive means no such curve, though single readings can be large or run the other way.
Form entry, call: pick from True = active, False = inactive

compound="CC1(c2ccccc2)OC(C(=O)O)=CC1=O (centres undefined)" qualitativelabel=False
compound=CN(C)CCN(Cc1ccsc1)c1ccccn1 qualitativelabel=False
compound=OC(C#CCN1CCCC1)(c1ccccc1)c1ccccc1 qualitativelabel=False
compound=COc1ccc2cccc(CCNC(C)=O)c2c1 qualitativelabel=False
compound=COC(=O)c1ccc(I)cc1S(=O)(=O)NC(=O)Nc1nc(C)nc(OC)n1 qualitativelabel=False

Recorded test outcome, item `COc1cc(Cl)c(OC)cc1N`
False

Also check `Nc1cc(C(=O)O)c(O)c(S(=O)(=O)O)c1`
False

And then `COC(C)OC` , what is it?
False

What do you get for O=C1OC(CN2CCOCC2)CN1/N=C/c1ccc([N+](=O)[O-])o1 (centres undefined) ?
False
